assay: Method 11: Single Dose Pharmacokinetics and Oral Bioavailability in Male Sprague-Dawley Rat; type: in vivo; conditions: plasma, po, 2 mg/kg, mean
Measured attribute: AUC(0-inf) (ng·h/mL)
Respond numerically; units are ng·h/mL and should not be typed.

**Q:** Using known records, supply AUC(0-inf) for Cc1ccnc(Nc2nc(N3CCC(C(=O)O)CC3)nc3c(C)nn(CCOCC(F)(F)F)c23)c1 [WO2004096810 Example 261]
**A:** 20000

**Q:** Using known records, supply AUC(0-inf) for CCc1nn(CCOCC(F)(F)F)c2c(Nc3cc(C)ncn3)nc(N3CCC(C(=O)O)CC3)nc12 [WO2004096810 Example 263]
**A:** 329

**Q:** Using known records, supply AUC(0-inf) for CCOCCn1nc(CC)c2nc(N3CCC(C(=O)O)CC3)nc(Nc3cc(C)ccn3)c21 [Carboxypiperidine Compound]
**A:** 9070

**Q:** Using known records, supply AUC(0-inf) for Cc1cc(Nc2nc(N3CCC(C(=O)O)CC3)nc3c(C)nn(CCOCC(F)(F)F)c23)ncn1 [WO2004096810 Example 262]
**A:** 280

----------
molecular target: PDE5 enzyme (Homo sapiens, UniProt O76074); construct: The PDE5 enzyme isolated from human platelets; from tissue; host or cells: human platelets; experiment: Method 1: Human Platelet PDE5 Enzyme Inhibition Scintillation Proximity Assay; format: biochemical; conditions: METHOD 1: PDE5 IC50, Table B, WO2004096810 examples
pIC50: −log10 of the molar value.
# pIC50 >= 8 gives Condition met, anything below gives Condition not met

**Q:** Does the reported pIC50 for COCCn1nc(C)c2nc(N3CC[C@H](OC)C3)nc(Nc3cc(C)ccn3)c21 [WO2004096810 Example 95] fall at or above the 8 mark?
**A:** Condition not met

**Q:** Does the reported pIC50 for Cc1nn(C(C)C)c2c(Nc3ccncn3)nc(N3CCN[C@H](C)C3)nc12 [WO2004096810 Example 24] fall at or above the 8 mark?
**A:** Condition not met

**Q:** Does the reported pIC50 for CCOCCn1nc(COC)c2nc(N(C)C3CCN(C)CC3)nc(Nc3cc(C)ccn3)c21 [WO2004096810 Example 214] fall at or above the 8 mark?
**A:** Condition met

**Q:** Does the reported pIC50 for Cc1nccc(Nc2nc(N3CCN[C@H](C)C3)nc3c(C)nn(CCOCC(F)(F)F)c23)n1 [WO2004096810 Example 246] fall at or above the 8 mark?
**A:** Condition met

**Q:** Does the reported pIC50 for CCCc1nn(C)c2c(Nc3ccncn3)nc(N3CCN[C@@H](C)C3)nc12 [WO2004096810 Example 81] fall at or above the 8 mark?
**A:** Condition not met

**Q:** Does the reported pIC50 for CCOCCn1nc(CC)c2nc(N(C)[C@H]3CCN(C)C3)nc(Nc3cc(C)ccn3)c21 [WO2004096810 Example 162] fall at or above the 8 mark?
**A:** Condition met

----------
biological target: PDE5 enzyme (Homo sapiens, UniProt O76074); construct: The PDE5 enzyme isolated from human platelets; from tissue; host or cells: human platelets; assay: Method 1: Human Platelet PDE5 Enzyme Inhibition Scintillation Proximity Assay; assay type: biochemical; conditions: METHOD 1: PDE5 IC50, Table B, WO2004096810 examples
pIC50: −log10 of the molar value.
# pIC50 >= 8 gives T, anything below gives F

**Q:** Does the reported pIC50 for CCOCCn1nc(CC)c2nc(N3CCN[C@@H](C)C3)nc(Nc3ccncn3)c21 [WO2004096810 Example 16] fall at or above the 8 mark?
**A:** T

**Q:** Does the reported pIC50 for CCOCCn1nc(COC)c2nc(N(C)CCO)nc(Nc3cc(C)ccn3)c21 [WO2004096810 Example 227] fall at or above the 8 mark?
**A:** T

**Q:** Does the reported pIC50 for CCCc1nn(C)c2c(Nc3ccc(CC)cn3)nc(N3CCNCC3)nc12 [WO2004096810 Example 123] fall at or above the 8 mark?
**A:** F

**Q:** Does the reported pIC50 for CCc1nn(CCOCC(F)(F)F)c2c(Nc3ccnc(C)n3)nc(N3CCN[C@H](C)C3)nc12 [WO2004096810 Example 250] fall at or above the 8 mark?
**A:** T

**Q:** Does the reported pIC50 for CCCc1nn(C)c2c(Nc3cc(OC)ncn3)nc(NC)nc12 [WO2004096810 Example 84] fall at or above the 8 mark?
**A:** F

**Q:** Does the reported pIC50 for COCCNc1nc(Nc2cc(C)ccn2)c2c(n1)c(C)nn2CCOC [WO2004096810 Example 93] fall at or above the 8 mark?
**A:** F

**Q:** Does the reported pIC50 for Cc1ccnc(Nc2nc(N3CCNCC3)nc3c(C)n(Cc4ccccn4)nc23)c1 [WO2004096810 Example 176] fall at or above the 8 mark?
**A:** F

**Q:** Does the reported pIC50 for CCOCCn1nc(CO)c2nc(N(C)CC)nc(Nc3cc(C)ccn3)c21 [WO2004096810 Example 181] fall at or above the 8 mark?
**A:** T

**Q:** Does the reported pIC50 for COCCCn1nc(C)c2nc(N(C)CCO)nc(Nc3cc(C)ccn3)c21 [WO2004096810 Example 92] fall at or above the 8 mark?
**A:** F

**Q:** Does the reported pIC50 for CCOCCn1nc(CO)c2nc(N(C)CC)nc(Nc3ccncn3)c21 [WO2004096810 Example 228] fall at or above the 8 mark?
**A:** T

**Q:** Does the reported pIC50 for CCOCCn1nc(C)c2nc(N3CC4C[C@@H]3CN4)nc(Nc3cc(C)ccn3)c21 [WO2004096810 Example 244] fall at or above the 8 mark?
**A:** T

**Q:** Does the reported pIC50 for CCOCCn1nc(CO)c2nc(N(C)C)nc(Nc3cc(C)ccn3)c21 [WO2004096810 Example 182] fall at or above the 8 mark?
**A:** T

**Q:** Does the reported pIC50 for CCCc1nn(C)c2c(NC3CCCC3)nc(N3CCNCC3)nc12 [WO2004096810 Example 129] fall at or above the 8 mark?
**A:** F

**Q:** Does the reported pIC50 for CCOCCn1nc(C)c2nc(N(C)CC)nc(Nc3ccc(=O)n(C)c3)c21 [WO2004096810 Example 203] fall at or above the 8 mark?
**A:** T

**Q:** Does the reported pIC50 for CCc1nn(CCOC)c2c(Nc3cc(C)n[nH]3)nc(NCCn3cccn3)nc12 [WO2004096810 Example 115] fall at or above the 8 mark?
**A:** F
